# Species on record: Rattus norvegicus
# TEST DETAILS: DrugMatrix - Regimen: Daily Repeat
# Format: toxicity, organism-based, Sprague-Dawley
# Design: regimen Daily Repeat, gender Male, age 6-8 weeks
# STUDY CONDITIONS: in vivo, po, 1500 mg/kg, 120 h, tissue Plasma, route oral GAVAGE, dose level High, time 5 day, vehicle .5 % CMC
MEASURED PROPERTY: URIC ACID

> print(dat)
                                   compound  test.value
1  Nc1nc2c(c(=O)[nH]1)N(C=O)C(CNc1ccc(C(=O)N[C@@H](CCC(=O)O)C(=O)O)cc1)CN2 (some centres undefined)  1.37 mg/dL
2  CCOC(=O)[C@H](CCc1ccccc1)N[C@@H](C)C(=O)N1CCC[C@H]1C(=O)O   1.4 mg/dL
3  C[C@@H](O)[C@H]1C(=O)N2C(C(=O)O)=C(S[C@@H]3CN[C@H](C(=O)N(C)C)C3)[C@H](C)[C@H]12   1.6 mg/dL
4  CC(C)(Sc1cc(C(C)(C)C)c(O)c(C(C)(C)C)c1)Sc1cc(C(C)(C)C)c(O)c(C(C)(C)C)c1  1.63 mg/dL

* * *

The entries below come with measured CARBON DIOXIDE values attached.
# Species on record: Rattus norvegicus
# TEST DETAILS: DrugMatrix - Regimen: Daily Repeat
# Format: toxicity, organism-based, Sprague-Dawley
# Set-up: regimen Daily Repeat, gender Male, age 6-8 weeks
# STUDY CONDITIONS: in vivo, po, 0 mg/kg, 72 h, tissue Plasma, route oral GAVAGE, dose level Control, time 3 day, vehicle 100 % SALINE
MEASURED PROPERTY: CARBON DIOXIDE

> print(dat)
                                   molecule  measured.property    test.value
1     CC(=O)OCC(CCn1cnc2cnc(N)nc21)COC(C)=O     CARBON DIOXIDE  31.33 mmol/L
2                                Oc1ccccc1O     CARBON DIOXIDE  26.67 mmol/L
3  CCCc1nn(C)c2c(=O)[nH]c(-c3cc(S(=O)(=O)N4CCN(C)CC4)ccc3OCC)nc12     CARBON DIOXIDE  31.33 mmol/L
4  Cc1cc(CC(=O)O)n(C)c1C(=O)c1ccc(Cl)cc1 [ZOMEPIRAC]     CARBON DIOXIDE  26.67 mmol/L

* * *

# Species on record: Rattus norvegicus
# TEST DETAILS: DrugMatrix - Regimen: Daily Repeat
# Assay type: toxicity, organism-based, Sprague-Dawley
# Set-up: regimen Daily Repeat, gender Male, age 6-8 weeks
# STUDY CONDITIONS: in vivo, po, 0 mg/kg, 72 h, tissue Plasma, route oral GAVAGE, dose level Control, time 3 day, vehicle .5 % CMC
MEASURED PROPERTY: CREATINE PHOSPHOKINASE (u/L)

> print(dat)
                                   compound  quantity.unit  test.value
1        Clc1cc2c(cc1Cl)Oc1cc(Cl)c(Cl)cc1O2            u/L         236
2   COc1ccc(/C=C/C(=O)Nc2ccccc2C(=O)O)cc1OC            u/L       331.5
3  CC(C)(Sc1cc(C(C)(C)C)c(O)c(C(C)(C)C)c1)Sc1cc(C(C)(C)C)c(O)c(C(C)(C)C)c1            u/L       331.5
4  CCOC(=O)[C@H](CCc1ccccc1)N[C@@H](C)C(=O)N1Cc2ccccc2C[C@H]1C(=O)O            u/L     1325.83
5         O=c1cc(-c2ccccc2)oc2ccc3ccccc3c12            u/L         236
6  CC(C(=O)O)c1ccc(-c2ccccc2)c(F)c1 (stereo not drawn)            u/L       331.5
7  CC(=O)O[C@]1(C(C)=O)CC[C@H]2[C@@H]3C=C(Cl)C4=CC(=O)[C@@H]5C[C@@H]5[C@]4(C)[C@H]3CC[C@@]21C [CYPROTERONE ACETATE]            u/L     1325.83
8  Cc1cnc(C(=O)NCCc2ccc(S(=O)(=O)NC(=O)NC3CCCCC3)cc2)cn1 [GLIPIZIDE]            u/L     1325.83

* * *

# Organism: Rattus norvegicus
# TEST DETAILS: DrugMatrix - Regimen: Daily Repeat
# Type: toxicity, organism-based, Sprague-Dawley
# Design: regimen Daily Repeat, gender Male, age 6-8 weeks
# STUDY CONDITIONS: in vivo, ip, 0 mg/kg, […], tissue Blood, route intraperitoneal, dose level Control, time 28 day, vehicle 100 % SALINE
MEASURED PROPERTY: ABSOLUTE MONOCYTE (cells/µL)

> print(dat)
                                  structure  test.value
1  NC[C@H]1O[C@H](O[C@H]2[C@H](O)[C@@H](O[C@H]3O[C@H](CO)[C@@H](O)[C@H](N)[C@H]3O)[C@H](N)C[C@@H]2N)[C@H](N)C[C@@H]1O         210

* * *

# Organism: Rattus norvegicus
# TEST DETAILS: DrugMatrix - Regimen: Daily Repeat
# Type: toxicity, organism-based, Sprague-Dawley
# Parameters: regimen Daily Repeat, gender Male, age 6-8 weeks
# STUDY CONDITIONS: in vivo, po, 0 mg/kg, 72 h, tissue Blood, route oral GAVAGE, dose level Control, time 3 day, vehicle .5 % CMC
MEASURED PROPERTY: MEAN CORPUSCULAR HEMOGLOBIN

> print(dat)
                                   compound            measured.property  test.value
1       CN1C(=O)CN=C(c2ccccc2)c2cc(Cl)ccc21  MEAN CORPUSCULAR HEMOGLOBIN    24.67 pg
2  Cc1cnc(C(=O)NCCc2ccc(S(=O)(=O)NC(=O)NC3CCCCC3)cc2)cn1 [GLIPIZIDE]  MEAN CORPUSCULAR HEMOGLOBIN     25.1 pg
3                             Nc1cccc(Cl)c1  MEAN CORPUSCULAR HEMOGLOBIN    21.35 pg
4     CCCCC1C(=O)N(c2ccccc2)N(c2ccccc2)C1=O  MEAN CORPUSCULAR HEMOGLOBIN       25 pg
5  CCOC(=O)[C@H](CCc1ccccc1)N[C@@H](C)C(=O)N1Cc2ccccc2C[C@H]1C(=O)O  MEAN CORPUSCULAR HEMOGLOBIN     25.1 pg

* * *

# Species on record: Rattus norvegicus
# TEST DETAILS: DrugMatrix - Regimen: Daily Repeat
# Type: toxicity, organism-based, Sprague-Dawley
# Parameters: regimen Daily Repeat, gender Male, age 6-8 weeks
# STUDY CONDITIONS: in vivo, po, 1500 mg/kg, 120 h, tissue Plasma, route oral GAVAGE, dose level High, time 5 day, vehicle .5 % CMC
MEASURED PROPERTY: CREATININE (mg/dL)

> print(dat)
                                   molecule  quantity.unit  test.value
1  Nc1nc2c(c(=O)[nH]1)N(C=O)C(CNc1ccc(C(=O)N[C@@H](CCC(=O)O)C(=O)O)cc1)CN2 (stereo not given in full) [LEUCOVORIN]          mg/dL         0.2
2  C[C@@H](O)[C@H]1C(=O)N2C(C(=O)O)=C(S[C@@H]3CN[C@H](C(=O)N(C)C)C3)[C@H](C)[C@H]12 [MEROPENEM]          mg/dL        0.23
3  CC(C)(Sc1cc(C(C)(C)C)c(O)c(C(C)(C)C)c1)Sc1cc(C(C)(C)C)c(O)c(C(C)(C)C)c1 [PROBUCOL]          mg/dL         0.2
4  O=c1cc(-c2ccccc2)oc2ccc3ccccc3c12 [BETA-NAPHTHOFLAVONE]          mg/dL        0.33
5  CCOC(=O)[C@H](CCc1ccccc1)N[C@@H](C)C(=O)N1CCC[C@H]1C(=O)O          mg/dL        0.37

* * *

# Species on record: Rattus norvegicus
# TEST DETAILS: DrugMatrix - Regimen: Daily Repeat
# Format: toxicity, organism-based, Sprague-Dawley
# Set-up: regimen Daily Repeat, gender Male, age 6-8 weeks
# STUDY CONDITIONS: in vivo, po, 100 mg/kg, 72 h, tissue Plasma, route oral GAVAGE, dose level Low, time 3 day, vehicle .5 % CMC
MEASURED PROPERTY: GLUCOSE (mg/dL)

> print(dat)
                                   molecule  test.value
1  Nc1nc2c(c(=O)[nH]1)N(C=O)C(CNc1ccc(C(=O)N[C@@H](CCC(=O)O)C(=O)O)cc1)CN2 (some centres undefined) [LEUCOVORIN]         142
2  C#C[C@]1(O)CC[C@H]2[C@@H]3CCC4=Cc5oncc5C[C@]4(C)[C@H]3CC[C@@]21C [DANAZOL]      163.33
3          CC=Cc1ccc(O)c(OC)c1 [ISOEUGENOL]         143
4  CC[C@]1(O)CC[C@H]2[C@@H]3CCC4=CCCC[C@@H]4[C@H]3CC[C@@]21C      164.33
